# Study target: T1, Akt wild-type recombinant protein (Akt1) (Homo sapiens (Human), UniProt P31749 1-480, as many as five phosphorylations seen by ESI-MS (positions not stated))
# T1 construct: also called Akt1 wild type
# T1 sequence (P31749 other isoform, or with tags, fused parts or gaps limits assumed): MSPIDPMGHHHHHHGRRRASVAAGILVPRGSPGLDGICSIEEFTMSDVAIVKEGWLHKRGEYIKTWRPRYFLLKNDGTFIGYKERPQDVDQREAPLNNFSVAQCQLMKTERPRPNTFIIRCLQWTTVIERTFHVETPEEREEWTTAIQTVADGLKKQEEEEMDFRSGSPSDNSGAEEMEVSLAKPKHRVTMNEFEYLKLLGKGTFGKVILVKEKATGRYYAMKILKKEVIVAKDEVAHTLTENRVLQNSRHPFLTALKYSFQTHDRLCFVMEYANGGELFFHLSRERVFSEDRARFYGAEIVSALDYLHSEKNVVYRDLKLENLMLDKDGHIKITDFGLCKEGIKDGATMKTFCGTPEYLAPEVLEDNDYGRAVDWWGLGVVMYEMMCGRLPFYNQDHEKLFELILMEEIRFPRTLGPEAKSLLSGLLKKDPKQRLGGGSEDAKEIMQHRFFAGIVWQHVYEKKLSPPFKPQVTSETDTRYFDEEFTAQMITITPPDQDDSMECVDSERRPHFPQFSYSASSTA
# Protocol: in vitro Akt1 kinase activity assay, biotinylated Bad-derived peptide substrate
Metric: Ki (nM)

[I] VELDPEFEPRARERAYAFGH (Made from peptide 2 by changing Thr at position 15 to Ala) [Peptide 4]
[II] VELDPEFEPRARERTYSFGH [Peptide 1]
Problem: Given the entries I and II , determine which has the lower reported Ki. Choose, then provide that item's label.
I
